Molecular target: human full-length VWF (human, UniProt P04275 764-2813)
Assay: SPR, Biacore T200, antibody captured on Protein A, full-length VWF as analyte, single-cycle kinetics
Please use T for Kd under 1 pM and F for everything else, ties included.

binder="1-D5_H0_VL-par (antibody, human IgG1, kappa, V domains shown, also called 1-D5_H0 (hIgG1)) VH: QVQLVESGGGVVQPGRSLRLSCAASGFTFSNYIMGWVRQAPGKGLEWVAIISTGGSTYYASWAKGRFTISRDNSKNTLYLQMNSLRAEDTAVYYCARGGSSAGAGFNIWGQGTLVTVSS VL: DIVMTQTPSSVSAAVGDTVTIQCQASQSINSGLAWYQQKPGQPPKRLIYKASTLASGVPSRFRGSGSGTDFTLTISDLECADAATYYCQSYHYISANGATFGGGTEVVVET" class_assignment=T
binder="1-D5_H2_L1 (antibody, human IgG1, kappa, V domains shown, humanised, human IgG1 kappa) VH: QQQLVESGGGVVQPGRSLRLSCAASGFSLNNYIMGWVRQAPGKGLEYIGIISTGGSTYYASWAKGRFTISRDSNTMYLQMNSLRAEDTATYFCARGGSSAGAGFNIWGQGTLVTVSS VL: DIQMTQSPSSLSASVGDRVTITCQASQSINSGLAWYQQKPGKAPKRLIYKASTLASGVPSRFSGSGSGTDFTLTISSLQPEDFATYYCQSYHYISANGATFGGGTKVEIKT" class_assignment=F
binder="1-D5_VH-par_L0 (antibody, human IgG1, kappa, V domains shown, also called 1-D5_L0 (hIgG1K)) VH: QQQLVESGGRLVTPGTPLTLTCAVSGFSLNNYIMGWVRQAPGKGLEYIGIISTGGSTYYASWAKGRFTISRTSTTMDLKMTSLTTEDTATYFCARGGSSAGAGFNIWGPGTLVTVSS VL: DIQMTQSPSSLSASVGDRVTITCQASQSINSGLAWYQQKPGKAPKLLIYKASTLASGVPSRFSGSGSGTDFTLTISSLQPEDFATYYCQSYHYISANGATFGGGTKVEIKT" class_assignment=F
binder="1-D5_H1_L1 (antibody, human IgG1, kappa, V domains shown, humanised, human IgG1 kappa) VH: QVQLVESGGGVVQPGRSLRLSCAASGFSLNNYIMGWVRQAPGKGLEWVAIISTGGSTYYASWAKGRFTISRDNSKNTLYLQMNSLRAEDTAVYYCARGGSSAGAGFNIWGQGTLVTVSS VL: DIQMTQSPSSLSASVGDRVTITCQASQSINSGLAWYQQKPGKAPKRLIYKASTLASGVPSRFSGSGSGTDFTLTISSLQPEDFATYYCQSYHYISANGATFGGGTKVEIKT" class_assignment=T
binder="4-H3_H3_L1 (antibody, human IgG1, kappa, V domains shown, humanised, human IgG1 kappa) VH: QVQLVESGGGVVQPGRSLRLSCAASGIDLTSNAMNWVRQAPGKGLEWIGGIYGHDTSYYAAWAKGRFTISRDNSKNTVYLQMNSLRAEDTAVYYCARGFIYFDIWGQGTLVTVSS VL: DYQMTQSPSSLSASVGDRVTITCLASEDIASGISWYQQKPGKAPKLLIYGASNLESGVPSRFSGSGSGTDYTLTISSLQPEDFATYYCLGGYSFSSNGLTFGGGTKVEIKT" class_assignment=F
binder="1-D5_H1_L0 (antibody, human IgG1, kappa, V domains shown, humanised, human IgG1 kappa) VH: QVQLVESGGGVVQPGRSLRLSCAASGFSLNNYIMGWVRQAPGKGLEWVAIISTGGSTYYASWAKGRFTISRDNSKNTLYLQMNSLRAEDTAVYYCARGGSSAGAGFNIWGQGTLVTVSS VL: DIQMTQSPSSLSASVGDRVTITCQASQSINSGLAWYQQKPGKAPKLLIYKASTLASGVPSRFSGSGSGTDFTLTISSLQPEDFATYYCQSYHYISANGATFGGGTKVEIKT" class_assignment=F
binder="1-D5_VH-par_L1 (antibody, human IgG1, kappa, V domains shown, also called 1-D5_L1 (hIgG1K)) VH: QQQLVESGGRLVTPGTPLTLTCAVSGFSLNNYIMGWVRQAPGKGLEYIGIISTGGSTYYASWAKGRFTISRTSTTMDLKMTSLTTEDTATYFCARGGSSAGAGFNIWGPGTLVTVSS VL: DIQMTQSPSSLSASVGDRVTITCQASQSINSGLAWYQQKPGKAPKRLIYKASTLASGVPSRFSGSGSGTDFTLTISSLQPEDFATYYCQSYHYISANGATFGGGTKVEIKT" class_assignment=F
binder="4-H3_H4_L0 (antibody, human IgG1, kappa, V domains shown, humanised, human IgG1 kappa) VH: QVQLVESGGGVVQPGRSLRLSCAASGIDLTSNAMNWVRQAPGKGLEWVAGIYGHDTSYYAAWAKGRFTISRDNSKNTLYLQMNSLRAEDTATYFCARGFIYFDIWGQGTLVTVSS VL: DIQMTQSPSSLSASVGDRVTITCLASEDIASGISWYQQKPGKAPKLLIYGASNLESGVPSRFSGSGSGTDFTLTISSLQPEDFATYYCLGGYSFSSNGLTFGGGTKVEIKT" class_assignment=F
binder="1-D5_H0_L0 (antibody, human IgG1, kappa, V domains shown, humanised, human IgG1 kappa) VH: QVQLVESGGGVVQPGRSLRLSCAASGFTFSNYIMGWVRQAPGKGLEWVAIISTGGSTYYASWAKGRFTISRDNSKNTLYLQMNSLRAEDTAVYYCARGGSSAGAGFNIWGQGTLVTVSS VL: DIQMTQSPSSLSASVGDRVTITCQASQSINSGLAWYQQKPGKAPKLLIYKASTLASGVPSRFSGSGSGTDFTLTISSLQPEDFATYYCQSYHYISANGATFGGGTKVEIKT" class_assignment=T
binder="1-D5_H2_VL-par (antibody, human IgG1, kappa, V domains shown, also called 1-D5_H2 (hIgG1)) VH: QQQLVESGGGVVQPGRSLRLSCAASGFSLNNYIMGWVRQAPGKGLEYIGIISTGGSTYYASWAKGRFTISRDSNTMYLQMNSLRAEDTATYFCARGGSSAGAGFNIWGQGTLVTVSS VL: DIVMTQTPSSVSAAVGDTVTIQCQASQSINSGLAWYQQKPGQPPKRLIYKASTLASGVPSRFRGSGSGTDFTLTISDLECADAATYYCQSYHYISANGATFGGGTEVVVET" class_assignment=F
